# key: entry, value: IC50
tested on: A549; assay: Cytotoxicity against human A549 cells after 72 hrs by resazurin based fluorescence assay; assay type: functional, cell-based; conditions: Homo sapiens, A549, 72 h

COc1ccc(-c2cccc(Br)n2)cc1OC | > 25 µM
COc1ccc(-c2cccc(-c3ccc(OC)c(O)c3)n2)c(OC)c1 | 0.044 µM

Input COc1ccc(-c2cccc(-c3ccc(OC)c(OC)c3)n2)cc1OC , output reported IC50.
> 50 µM

Input COc1ccc(-c2ccnc(-c3ccc(OC)cc3OC)c2)c(OC)c1 , output reported IC50.
> 50 µM

Input COc1ccc(-c2cccc(Br)n2)c(OC)c1 , output reported IC50.
> 50 µM

Input COc1cc(-c2cccc(Br)n2)cc(OC)c1OC , output reported IC50.
9 µM

Values were extracted from ChEMBL document CHEMBL3232884.
